Test system: Puccinia triticina; Synonym: Puccinia recondita f sp. tritici
Experiment: Wheat Brown Rust (PUCCRT) fungicidal activity on wheat seedlings
Format: in vivo
Conditions: 72 h; Low Volume, 121.5 g/H; 3 Day Curative; read-out: PUCCRT 3DC disease control
The reader will find reported pest or weed control at 121.5 g/ha values listed item by item below.

Please review the entries below; each comes with its answer.
Structure: COc1ccnc(C(=O)N[C@@H](C)C(=O)O[C@@H](C)C(c2ccc(Br)cc2)c2ccc(Br)cc2)c1OC(C)=O
Result: < 80%
--
Structure: COc1ccnc(C(=O)N[C@@H](C)C(=O)O[C@@H](C)C(c2ccc(Cl)cc2)c2ccc(Cl)cc2)c1OC(C)=O
Result: < 80%
--
Structure: COc1ccnc(C(=O)N[C@@H](C)C(=O)O[C@@H](C)[C@@H](c2ccccc2)c2ccc(F)cc2)c1OCOC(C)=O
Result: > 80%

Recorded result, COc1ccnc(C(=O)NCC(=O)O[C@@H](C)C(c2ccc(F)cc2)c2ccc(F)cc2)c1OC(C)=O , pest or weed control at 121.5 g/ha: < 80%

* * *

System: Mycosphaerella graminicola; Anamorph: Septoria tritici
Assay: Leaf Blotch of Wheat (SEPTTR) fungicidal activity on wheat seedlings
Assay type: in vivo
Details: Zymoseptoria tritici, 72 h; High Volume, 100 ppm; 3 Day Curative; read-out: SEPTTR 3DC disease control
Measurement name: pest or weed control at 100 ppm

Please review the entries below; each comes with its answer.
Molecule: COc1ccnc(C(=O)N[C@@H](C)C(=O)O[C@@H](C)[C@@H](c2ccccc2)c2ccc(C(F)(F)F)cc2)c1O
pest or weed control at 100 ppm: > 80%

Molecule: COc1ccnc(C(=O)N[C@@H](C)C(=O)OC(C)C2c3ccccc3Oc3ccccc32)c1O (stereo partly shown)
pest or weed control at 100 ppm: < 80%

Molecule: COc1cccc(C(c2cccc(OC)c2)[C@H](C)OC(=O)[C@H](C)NC(=O)c2nccc(OC)c2O)c1
pest or weed control at 100 ppm: > 80%

Molecule: C#Cc1ccc(C(c2ccc(C#C)cc2)[C@H](C)OC(=O)[C@H](C)NC(=O)c2nccc(OC)c2O)cc1
pest or weed control at 100 ppm: > 80%

Molecule: COc1ccnc(C(=O)NCC(=O)O[C@@H](C)C(c2ccc(F)cc2)c2ccc(F)cc2)c1O
pest or weed control at 100 ppm: < 80%

Fill in: Mycosphaerella graminicola; Anamorph: Septoria tritici pest or weed control at 100 ppm for CCOC(c1ccccc1)(c1ccccc1)[C@H](C)OC(=O)[C@H](C)NC(=O)c1nccc(OC)c1O = < 80%

Fill in: Mycosphaerella graminicola; Anamorph: Septoria tritici pest or weed control at 100 ppm for COc1ccnc(C(=O)N[C@@H](C)C(=O)O[C@@H](C)C(O)(c2ccccc2F)c2ccccc2F)c1O = < 80%

* * *

System: Puccinia triticina; Synonym: Puccinia recondita f sp. tritici
Test: Wheat Brown Rust (PUCCRT) fungicidal activity on wheat seedlings
Assay type: in vivo
Details: 72 h; Low Volume, 121.5 g/H; 3 Day Curative; read-out: PUCCRT 3DC disease control
Measurement name: pest or weed control at 121.5 g/ha

Please review the entries below; each comes with its answer.
Structure: COc1ccnc(C(=O)N[C@@H](C)C(=O)O[C@@H](C)C(c2cccc(F)c2)c2cccc(F)c2)c1OC(C)=O
Measurement name: pest or weed control at 121.5 g/ha
Result: > 80%

Structure: CC[C@H](NC(=O)c1nccc(OC)c1OC(C)=O)C(=O)O[C@@H](C)C(c1ccc(F)cc1)c1ccc(F)cc1
Measurement name: pest or weed control at 121.5 g/ha
Result: < 80%

Structure: CC[C@H](NC(=O)c1nccc(OC)c1OCOC(C)=O)C(=O)O[C@@H](C)C(c1ccc(F)cc1)c1ccc(F)cc1
Measurement name: pest or weed control at 121.5 g/ha
Result: > 80%

Structure: COc1ccnc(C(=O)N[C@@H](C)C(=O)O[C@@H](C)C(c2ccc(F)c(Cl)c2)c2ccc(F)c(Cl)c2)c1OC(C)=O
Measurement name: pest or weed control at 121.5 g/ha
Result: < 80%

Structure: COc1ccnc(C(=O)N[C@@H](C)C(=O)O[C@@H](C)C(c2ccc(C)c(F)c2)c2ccc(C)c(F)c2)c1OCOC(C)=O
Measurement name: pest or weed control at 121.5 g/ha
Result: < 80%

Structure: CCOCC(=O)OCOc1c(OC)ccnc1C(=O)N[C@@H](C)C(=O)O[C@@H](C)C(c1ccc(F)cc1)c1ccc(F)cc1
Measurement name: pest or weed control at 121.5 g/ha
Result: > 80%

Recorded result, COc1ccnc(C(=O)N[C@@H](C)C(=O)O[C@@H](C)C(c2ccccc2)c2ccccc2)c1OCOC(=O)C(C)C , pest or weed control at 121.5 g/ha: > 80%

* * *

Test system: Mycosphaerella graminicola; Anamorph: Septoria tritici
Experiment: Leaf Blotch of Wheat (SEPTTR) fungicidal activity on wheat seedlings
Format: in vivo
Details: Zymoseptoria tritici, 72 h; High Volume, 100 ppm; 3 Day Curative; read-out: SEPTTR 3DC disease control
Measurement name: pest or weed control at 100 ppm

Please review the entries below; each comes with its answer.
Structure: COc1ccnc(C(=O)N[C@@H](C)C(=O)O[C@@H](C)C(c2ccc(-c3ccccc3)cc2)c2ccc(-c3ccccc3)cc2)c1O
pest or weed control at 100 ppm: < 80%
--
Structure: CCOc1ccnc(C(=O)N[C@@H](C)C(=O)O[C@@H](C)C(c2ccc(F)cc2)c2ccc(F)cc2)c1O
pest or weed control at 100 ppm: > 80%
--
Structure: COc1ccnc(C(=O)N[C@@H](C)C(=O)O[C@@H](C)C(c2ccc(Cl)cc2)c2ccc(Cl)cc2)c1O
pest or weed control at 100 ppm: > 80%

Please look at the following compound next.
Recorded result, C[C@H](NC(=O)c1ncccc1O)C(=O)O[C@@H](C)C(c1ccc(F)cc1)c1ccc(F)cc1 , pest or weed control at 100 ppm: > 80%

* * *

System: Puccinia triticina; Synonym: Puccinia recondita f sp. tritici
Experiment: Wheat Brown Rust (PUCCRT) fungicidal activity on wheat seedlings
Type: in vivo
Details: 72 h; Low Volume, 121.5 g/H; 3 Day Curative; read-out: PUCCRT 3DC disease control
Measurement name: pest or weed control at 121.5 g/ha

Please review the entries below; each comes with its answer.
Structure: COc1ccnc(C(=O)N[C@@H](C)C(=O)O[C@@H](C)[C@@H](c2ccccc2)c2ccc(C(F)(F)F)cc2)c1OC(C)=O
pest or weed control at 121.5 g/ha: < 80%
//
Structure: COc1ccnc(C(=O)N[C@@H](C)C(=O)O[C@@H](C)C(c2ccc(F)cc2F)c2ccc(F)cc2F)c1OC(C)=O
pest or weed control at 121.5 g/ha: > 80%
//
Structure: COc1ccnc(C(=O)N[C@H](C(=O)O[C@@H](C)C(c2ccc(F)cc2)c2ccc(F)cc2)C(C)C)c1OCOC(C)=O
pest or weed control at 121.5 g/ha: < 80%
//
Structure: COc1ccnc(C(=O)N[C@@H](C)C(=O)O[C@@H](C)C(c2cccc(F)c2)c2cccc(F)c2)c1OCOC(C)=O
pest or weed control at 121.5 g/ha: > 80%
//
Structure: COc1ccnc(C(=O)N[C@H](C(=O)O[C@@H](C)C(c2ccc(F)cc2)c2ccc(F)cc2)C(C)C)c1OC(C)=O
pest or weed control at 121.5 g/ha: < 80%
//
Structure: COc1ccnc(C(=O)NCC(=O)O[C@@H](C)C(c2ccc(F)cc2)c2ccc(F)cc2)c1OCOC(C)=O
pest or weed control at 121.5 g/ha: > 80%

Fill in: Puccinia triticina; Synonym: Puccinia recondita f sp. tritici pest or weed control at 121.5 g/ha for C#Cc1ccc(C(c2ccc(C#C)cc2)[C@H](C)OC(=O)[C@H](C)NC(=O)c2nccc(OC)c2OCOC(C)=O)cc1 = > 80%

* * *

The reader will find reported pest or weed control at 121.5 g/ha values listed item by item below.
System: Mycosphaerella graminicola; Anamorph: Septoria tritici
Assay: Leaf Blotch of Wheat (SEPTTR) fungicidal activity on wheat seedlings
Type: in vivo
Conditions: Zymoseptoria tritici, 72 h; Low Volume, 121.5 g/H; 3 Day Curative; read-out: SEPTTR 3DC disease control

Please review the entries below; each comes with its answer.
Molecule: COc1ccnc(C(=O)N[C@@H](C)C(=O)O[C@@H](C)C(c2cccs2)c2cccs2)c1OC(C)=O
pest or weed control at 121.5 g/ha: < 80%
--
Molecule: COc1ccnc(C(=O)N[C@@H](C)C(=O)O[C@@H](C)C(c2ccc(Cl)cc2)c2ccc(Cl)cc2)c1OCOC(C)=O
pest or weed control at 121.5 g/ha: > 80%
--
Molecule: CC(=O)OCOc1cccnc1C(=O)N[C@@H](C)C(=O)O[C@@H](C)C(c1ccc(F)cc1)c1ccc(F)cc1
pest or weed control at 121.5 g/ha: > 80%
--
Molecule: COc1ccnc(C(=O)N[C@@H](C)C(=O)O[C@@H](C)C(c2ccc(Cl)cc2)c2ccc(Cl)cc2)c1OC(C)=O
pest or weed control at 121.5 g/ha: > 80%
--
Molecule: COc1ccnc(C(=O)N[C@@H](C)C(=O)O[C@@H](C)C(c2cccc(Cl)c2)c2cccc(Cl)c2)c1OCOC(C)=O
pest or weed control at 121.5 g/ha: > 80%

Recorded result, COc1ccnc(C(=O)N[C@@H](C)C(=O)O[C@@H](C)C(c2ccc(C)cc2)c2ccc(C)cc2)c1OC(=O)C(C)C , pest or weed control at 121.5 g/ha: > 80%

Recorded result, COCCC(=O)Oc1c(OC)ccnc1C(=O)N[C@@H](C)C(=O)O[C@@H](C)C(c1ccc(F)cc1)c1ccc(F)cc1 , pest or weed control at 121.5 g/ha: > 80%

Recorded result, COc1ccnc(C(=O)N[C@@H](C)C(=O)O[C@@H](C)C(c2ccc(Cl)c(C)c2)c2ccc(Cl)c(C)c2)c1OCOC(C)=O , pest or weed control at 121.5 g/ha: > 80%

Recorded result, COc1ccnc(C(=O)N[C@@H](C)C(=O)OC(C)C2c3ccccc3-c3ccccc32)c1OCOC(C)=O (stereo partly drawn) , pest or weed control at 121.5 g/ha: > 80%
